Study System: ULK1 (human) (UniProt O75385)
Sequence (O75385 whole entry, looked up): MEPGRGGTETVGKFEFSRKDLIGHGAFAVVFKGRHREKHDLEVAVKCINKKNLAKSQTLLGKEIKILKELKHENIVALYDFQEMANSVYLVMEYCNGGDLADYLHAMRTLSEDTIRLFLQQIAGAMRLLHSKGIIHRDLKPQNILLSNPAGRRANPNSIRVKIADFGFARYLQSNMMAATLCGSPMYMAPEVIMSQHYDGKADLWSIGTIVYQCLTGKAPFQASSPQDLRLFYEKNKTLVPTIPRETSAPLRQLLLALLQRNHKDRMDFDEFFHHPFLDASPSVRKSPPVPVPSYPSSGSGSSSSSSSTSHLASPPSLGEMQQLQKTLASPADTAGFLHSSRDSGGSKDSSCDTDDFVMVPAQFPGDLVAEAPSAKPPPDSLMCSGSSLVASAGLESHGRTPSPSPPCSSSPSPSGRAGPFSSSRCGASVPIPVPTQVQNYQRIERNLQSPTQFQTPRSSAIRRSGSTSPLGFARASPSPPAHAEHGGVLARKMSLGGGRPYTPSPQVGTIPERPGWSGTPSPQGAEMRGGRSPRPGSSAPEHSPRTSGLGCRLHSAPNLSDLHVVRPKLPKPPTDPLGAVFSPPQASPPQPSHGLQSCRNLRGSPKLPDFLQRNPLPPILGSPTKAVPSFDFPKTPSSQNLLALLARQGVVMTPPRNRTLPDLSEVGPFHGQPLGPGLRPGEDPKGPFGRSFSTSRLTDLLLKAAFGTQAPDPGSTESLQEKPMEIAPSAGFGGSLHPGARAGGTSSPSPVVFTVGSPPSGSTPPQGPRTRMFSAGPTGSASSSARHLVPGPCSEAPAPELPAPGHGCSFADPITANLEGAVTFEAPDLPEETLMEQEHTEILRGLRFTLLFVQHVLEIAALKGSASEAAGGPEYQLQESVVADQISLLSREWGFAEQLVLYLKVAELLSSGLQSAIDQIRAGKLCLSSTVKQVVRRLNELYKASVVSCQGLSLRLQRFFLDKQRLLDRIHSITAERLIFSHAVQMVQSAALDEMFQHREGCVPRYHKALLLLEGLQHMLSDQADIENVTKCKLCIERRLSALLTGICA
Method Summary: radiometric filter-binding kinase assay, Kinase HotSpot
Measurement Conditions: compound 0.5 µM; ATP 10 µM
Reported Endpoint: residual activity (%)
Answers are plain numbers, in %.

These solved cases illustrate the format of a correct answer.
Cc1nc2cc3nc(-c4cccs4)cnc3cc2n1C :: 84.6
CC(C)c1nn(-c2c(Cl)cccc2Cl)c2nc(Cc3ccc(OCCO)cc3)nc(O)c12 :: 125

Quick request: residual activity for each listed item, please.
1. O=C1Nc2ccccc2/C1=C1/Nc2ccccc2/C1=N\OCCC(O)CO (configuration not stated)
2. CCn1cnc2c(Nc3cccc(Cl)c3)nc(N[C@@H]3CCCC[C@@H]3N)nc21
3. CN([C@@H](Cc1ccc(OS(=O)(=O)c2cccc3cnccc23)cc1)C(=O)N1CCN(c2ccccc2)CC1)S(=O)(=O)c1cccc2cnccc12
4. O=C1NC(=O)/C(=C\c2ccc3nccnc3c2)S1
5. O=C1NC(=O)C(c2cn(CCCO)c3ncccc23)=C1c1cnccn1
6. O=C1Nc2ccccc2/C1=C1\Nc2ccccc2\C1=N/O
7. COc1cc2ncnc(N3CCN(C(=O)Nc4ccc(Oc5ccccc5)cc4)CC3)c2cc1OC
8. Cn1sc(=O)n(Cc2ccccc2)c1=O

Result block:
98.3
74.5
101
100
102
78.9
110
98.9

Quick request: residual activity for each listed item, please.
1. CN(C)C[C@H]1CCn2c(c(C3=C(c4cn(C)c5ccccc45)C(=O)NC3=O)c3ccccc32)C1
2. Cn1nc2c3c(cccc31)C(=O)c1ccccc1-2
3. CC(=O)O/N=C1\C(=C2\C(=O)Nc3cc(Br)ccc32)Nc2ccccc21
4. COc1ccc(CNC(=O)Nc2ncc([N+](=O)[O-])s2)cc1
5. COc1ccc(OC)c2c(=S)c3ccccc3[nH]c12
6. O=C(Nc1cccc(Nc2cc(Nc3cccc(C(F)(F)F)c3)ncn2)c1)C1CC1
7. Nc1nccc(-c2c(-c3ccc(F)cc3)ncn2C2CCNCC2)n1
8. O=C(CCCc1ccc(-c2ccccc2F)cc1)Nc1ccc(O)cc1

Result block:
1: 98.9; 2: 101; 3: 95.6; 4: 97.7; 5: 114; 6: 100; 7: 95.3; 8: 106

Quick request: residual activity for each listed item, please.
1. COc1cc2ncc(-c3ccccc3)nc2cc1OC
2. Cn1cnc2cc3c(Nc4cccc(Br)c4)ncnc3cc21
3. O=C1Cc2c([nH]c3ccc(Br)cc23)-c2ccccc2N1
4. Oc1ccc(Nc2nc(-c3ccc(Cl)cc3)cs2)cc1

Result block:
84.5
113
93.8
84.2

---

Study System: CDK7 CCNH MNAT1 (human) (UniProt P50613+P51948+P51946)
Sequence (P50613 whole entry, looked up): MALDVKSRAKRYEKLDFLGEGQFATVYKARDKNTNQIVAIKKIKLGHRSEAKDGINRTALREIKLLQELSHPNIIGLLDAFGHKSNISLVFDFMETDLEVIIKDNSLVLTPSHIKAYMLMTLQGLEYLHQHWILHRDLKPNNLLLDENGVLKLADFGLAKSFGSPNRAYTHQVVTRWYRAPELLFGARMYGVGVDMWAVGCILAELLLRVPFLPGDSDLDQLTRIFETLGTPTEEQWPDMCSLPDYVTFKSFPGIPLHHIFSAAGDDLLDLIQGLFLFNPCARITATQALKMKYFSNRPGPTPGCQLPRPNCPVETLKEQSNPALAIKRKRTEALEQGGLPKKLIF
Sequence (P51946 whole entry, looked up): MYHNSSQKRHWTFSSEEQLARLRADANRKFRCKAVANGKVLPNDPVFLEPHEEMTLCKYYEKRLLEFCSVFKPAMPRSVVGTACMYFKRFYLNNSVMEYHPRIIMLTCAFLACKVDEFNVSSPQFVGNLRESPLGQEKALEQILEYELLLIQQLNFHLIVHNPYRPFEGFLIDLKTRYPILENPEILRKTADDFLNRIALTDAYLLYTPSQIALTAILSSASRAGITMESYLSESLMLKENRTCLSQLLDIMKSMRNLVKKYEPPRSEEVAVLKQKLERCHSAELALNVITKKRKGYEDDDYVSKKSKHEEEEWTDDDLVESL
Sequence (P51948 whole entry, looked up): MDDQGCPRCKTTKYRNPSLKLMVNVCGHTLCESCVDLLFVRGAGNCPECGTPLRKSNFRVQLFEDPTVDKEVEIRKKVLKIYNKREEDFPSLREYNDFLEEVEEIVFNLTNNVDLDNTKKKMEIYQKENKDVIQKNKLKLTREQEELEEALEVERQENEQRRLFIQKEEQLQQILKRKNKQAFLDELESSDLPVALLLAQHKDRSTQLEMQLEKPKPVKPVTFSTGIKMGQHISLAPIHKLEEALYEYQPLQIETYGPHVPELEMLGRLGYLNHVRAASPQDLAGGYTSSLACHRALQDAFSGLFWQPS
Method Summary: radiometric filter-binding kinase assay, Kinase HotSpot
Measurement Conditions: compound 0.5 µM; ATP 10 µM
Reported Endpoint: residual activity (%)
Numbers only, in %.

These solved cases illustrate the format of a correct answer.
Cn1nc2c3c(cccc31)C(=O)c1ccccc1-2 :: 98.8
O=C1Nc2ccccc2/C1=C1\Nc2ccccc2\C1=N/O :: 89.9
COc1cc2ncnc(N3CCN(C(=O)Nc4ccc(Oc5ccccc5)cc4)CC3)c2cc1OC :: 103
c1cc(-c2cnn3cc(-c4ccc(OCCN5CCCCC5)cc4)cnc23)ccn1 :: 83.7
CCn1cnc2c(Nc3cccc(Cl)c3)nc(N[C@@H]3CCCC[C@@H]3N)nc21 :: 58.4

Query block: Please look up its residual activity: O=C(Nc1cccc(Nc2cc(Nc3cccc(C(F)(F)F)c3)ncn2)c1)C1CC1
Result block: 97.6
